Data origin: patent US20240228489A1

Target: UniProtKB P11229
Assay: mAChR M1 cell-based functional assay (calcium mobilization), agonist mode: compound alone, Emax relative to acetylcholine maximum
Conditions: relative to the maximum for acetylcholine
Description: Chinese hamster ovary (CHO-K1) cells stably expressing rat (r)M1 were purchased from the American Type Culture Collection and cultured according to their indicated protocol. […] Calcium flux was measured using the Functional Drug Screening System (FDSS) 6000 (Hamamatsu Corporation, Tokyo, Japan) as an increase in the fluorescent static ratio. […] Agonist activity was analyzed as a concentration-dependent increase in calcium mobilization upon compound addition. […]
MEASUREMENT KIND: Emax (%)
One number for each entry, in %.

Answer for every listed entry: what is its Emax? The entries follow.
1. [2H]C1([2H])c2ncccc2C(=O)N1Cc1c(Cl)cc(-c2cccc3nn(C([2H])([2H])[2H])cc23)cc1Cl [Compound 228]
2. [2H]C1([2H])c2ncccc2C(=O)N1Cc1c(F)cc(-c2ccnc3nn(C)cc23)cc1C1CC1 [Compound 208]
3. [2H]C1([2H])c2ncccc2C(=O)N1Cc1c(F)cc(-c2cccc3nn(C(F)F)cc23)cc1F [Compound 50]
4. [2H]C1([2H])c2ncccc2C(=O)N1Cc1c(C)cc(-c2ccc(C)c3nn(C)cc23)cc1F [Compound 197]
5. [2H]C1([2H])c2ncccc2C(=O)N1Cc1c(F)cc(-c2ccc(OC3COC3)c3nn(C)cc23)cc1F [Compound 139]
6. [2H]C1([2H])c2ncccc2C(=O)N1Cc1c(F)cc(-c2ccc(O)c3nn(C([2H])([2H])[2H])cc23)cc1F [Compound 132]
7. [2H]C1([2H])c2ncccc2C(=O)N1Cc1c(F)cc(-c2ccc(Cl)c3nn(C)cc23)cc1C1CC1 [Compound 206]

Result block:
1: 1; 2: 59; 3: 4; 4: 37; 5: 36; 6: 47; 7: 38

---

Molecular target: human mAChR M1 (Homo sapiens)
Sequence (P11229 1-460): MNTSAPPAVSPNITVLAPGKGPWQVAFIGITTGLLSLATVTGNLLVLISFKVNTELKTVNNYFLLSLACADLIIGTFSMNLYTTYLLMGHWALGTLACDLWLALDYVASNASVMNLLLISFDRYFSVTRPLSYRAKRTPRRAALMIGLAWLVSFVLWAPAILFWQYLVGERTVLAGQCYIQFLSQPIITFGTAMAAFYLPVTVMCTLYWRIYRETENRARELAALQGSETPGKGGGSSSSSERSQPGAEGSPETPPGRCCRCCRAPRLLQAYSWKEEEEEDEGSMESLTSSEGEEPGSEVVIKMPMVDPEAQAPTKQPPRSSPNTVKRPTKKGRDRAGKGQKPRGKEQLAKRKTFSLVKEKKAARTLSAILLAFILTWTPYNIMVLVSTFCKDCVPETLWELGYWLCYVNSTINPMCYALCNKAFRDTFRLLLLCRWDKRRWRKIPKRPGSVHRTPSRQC
Assay: mAChR M1 cell-based functional assay (calcium mobilization), agonist mode: compound alone, Emax relative to acetylcholine maximum
Conditions: human mAChR M1
MEASUREMENT KIND: Agonist Activity Human M1 EC50

Worked examples, 5 compounds total:
1) [2H]C1([2H])c2ncccc2C(=O)N1Cc1c(F)cc(-c2ccc(OC(C)C)c3c2cnn3C([2H])([2H])[2H])cc1F [Compound 250] ... Inactive
2) [2H]C1([2H])c2ncccc2C(=O)N1Cc1c(F)cc(-c2c(F)ccc3nn(C)cc23)cc1F [Compound 37] ... Inactive
3) [2H]C1([2H])c2ncccc2C(=O)N1Cc1c(F)cc(-c2cccc3nn(C)cc23)cc1OC [Compound 231] ... Inactive
4) [2H]C1([2H])c2ncccc2C(=O)N1Cc1c(F)cc(-c2cnc(OC)c3c2cnn3C)cc1F [Compound 253] ... Inactive
5) [2H]C1([2H])c2ncccc2C(=O)N1Cc1c(F)cc(-c2cc(Cl)cc3nn(C([2H])([2H])[2H])cc23)cc1F [Compound 85] ... Inactive

Answer for every listed entry: what is its Agonist Activity Human M1 EC50? The entries follow.
1. [2H]C1([2H])c2ncccc2C(=O)N1Cc1c(F)cc(-c2ccc(OC3CN(C(=O)OC(C)(C)C)C3)c3nn(C)cc23)cc1F [Compound 173]
2. [2H]C1([2H])c2ncccc2C(=O)N1Cc1c(F)cc(-c2ccc(OC3CN(CCCC)C3)c3nn(C)cc23)cc1F [Compound 184]

Result block:
["Inactive", "Inactive"]

---

Target: human mAChR M1 (Homo sapiens, UniProt P11229)
Sequence (P11229 1-460): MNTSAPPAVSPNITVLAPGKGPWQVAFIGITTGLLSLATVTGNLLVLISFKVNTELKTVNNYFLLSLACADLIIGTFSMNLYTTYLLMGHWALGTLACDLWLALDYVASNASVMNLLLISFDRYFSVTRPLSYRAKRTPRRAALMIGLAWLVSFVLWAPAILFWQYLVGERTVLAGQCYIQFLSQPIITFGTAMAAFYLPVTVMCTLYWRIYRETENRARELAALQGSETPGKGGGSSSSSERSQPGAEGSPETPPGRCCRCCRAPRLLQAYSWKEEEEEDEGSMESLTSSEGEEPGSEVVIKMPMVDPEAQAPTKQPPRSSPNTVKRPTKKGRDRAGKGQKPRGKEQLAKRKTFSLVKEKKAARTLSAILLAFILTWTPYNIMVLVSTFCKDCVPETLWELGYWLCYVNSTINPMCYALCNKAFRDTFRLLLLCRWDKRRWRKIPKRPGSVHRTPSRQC
Assay: mAChR M1 cell-based functional assay (calcium mobilization), PAM mode: increase in the EC20 acetylcholine response
So I've got a bunch of compounds here, and I need their log10(EC50) values.
Hey, these are logged values: log10 of EC50, nM being the unit before logging.

1) [2H]C1([2H])c2ncccc2C(=O)N1Cc1c(Cl)cc(-c2cccc3nn(C)cc23)cc1C1CC1 ... 2.69
2) [2H]C1([2H])c2ncccc2C(=O)N1Cc1ccc(-c2ccc(C)c3nn(C([2H])([2H])[2H])cc23)cc1C ... 2.79
3) [2H]C1([2H])c2ncccc2C(=O)N1Cc1c(F)cc(-c2ccc(O[C@@H]3CCOC3)c3nn(C)cc23)cc1F ... 2.41
4) [2H]C1([2H])c2ncccc2C(=O)N1Cc1c(F)cc(-c2ccc(Cl)c3nn(C)cc23)cc1C1CC1 ... 2.53

Answer for every listed entry: what is its log10(EC50)? The entries follow.
1. [2H]C1([2H])c2ncccc2C(=O)N1Cc1ccc(-c2ccc(OCCOC)c3nn(C([2H])([2H])[2H])cc23)cc1F
2. [2H]C1([2H])c2ncccc2C(=O)N1Cc1c(C)cc(-c2ccc(Cl)c3nn(C)cc23)cc1F
3. [2H]C1([2H])c2ncccc2C(=O)N1Cc1c(F)cc(-c2cccc3nn(C([2H])([2H])[2H])cc23)cc1Cl
4. [2H]C1([2H])c2ncccc2C(=O)N1Cc1c(F)cc(-c2ccc(Cl)c3nn(C)cc23)cc1F
5. [2H]C1([2H])c2ncccc2C(=O)N1Cc1c(F)cc(-c2ccc(C)c3c2cnn3C([2H])([2H])[2H])cc1F
6. [2H]C1([2H])c2ncccc2C(=O)N1Cc1c(F)cc(-c2cccc3nn(C)cc23)cc1OC
7. [2H]C1([2H])c2ncccc2C(=O)N1Cc1c(F)cc(-c2ccc(OC)c3nn(C([2H])([2H])[2H])cc23)cc1F
8. [2H]C1([2H])c2ncccc2C(=O)N1Cc1c(F)cc(-c2c(F)ccc3nn(C)cc23)cc1F

Result block:
[2.50, 2.68, 2.55, 2.37, 3.09, 2.91, 2.24, 3.36]

---

So I've got a bunch of molecules here, and I need their pEC50 values.
Molecular target: human mAChR M1 (Homo sapiens)
Assay: mAChR M1 cell-based functional assay (calcium mobilization), agonist mode: compound alone, Emax relative to acetylcholine maximum
Details: human mAChR M1
pEC50: −log10 of the molar value.

Worked examples, 2 molecules total:
1. [2H]C1([2H])c2ncccc2C(=O)N1Cc1c(F)cc(-c2cccc3c2cnn3C)cc1F ... < 5.00
2. [2H]C1([2H])c2ncccc2C(=O)N1Cc1c(F)cc(-c2ccc(OCC3CC3)c3nn(C)cc23)cc1F ... ≤ 5.00

Answer for every listed entry: what is its pEC50? The entries follow.
1. [2H]C1([2H])c2ncc(OCCc3ccccn3)cc2C(=O)N1Cc1c(F)cc(-c2cccc3nn(C([2H])([2H])[2H])cc23)cc1F
2. [2H]C1([2H])c2ncccc2C(=O)N1Cc1c(F)cc(-c2ccnc3nn(C)cc23)cc1Cl

Result block:
≤ 5.00
≤ 5.00

Answer for every listed entry: what is its pEC50? The entries follow.
1. [2H]C1([2H])c2ncccc2C(=O)N1Cc1c(F)cc(-c2ccc(OC3CCOC3)c3nn(C([2H])([2H])[2H])cc23)cc1F (stereo not shown)
2. [2H]C1([2H])c2ncccc2C(=O)N1Cc1c(F)cc(-c2ccc(OC[C@@H](C)OC)c3nn(C)cc23)cc1F
3. [2H]C1([2H])c2ncccc2C(=O)N1Cc1c(F)cc(-c2cccc3nn(C([2H])([2H])[2H])cc23)cc1F

Result block:
[5.22, "≤ 5.00", 5.07]
